Entry source: patent US20210032312A1

Target: T1, cynomolgus monkey CD8A on primary cynomolgus monkey CD8+ T cells (cynomolgus monkey, UniProt P01732 23-235 (human entry))
T1 construct: also called Cyno CD8alpha
T1 sequence (P01732 other isoform, or with tags, fused parts or gaps limits assumed): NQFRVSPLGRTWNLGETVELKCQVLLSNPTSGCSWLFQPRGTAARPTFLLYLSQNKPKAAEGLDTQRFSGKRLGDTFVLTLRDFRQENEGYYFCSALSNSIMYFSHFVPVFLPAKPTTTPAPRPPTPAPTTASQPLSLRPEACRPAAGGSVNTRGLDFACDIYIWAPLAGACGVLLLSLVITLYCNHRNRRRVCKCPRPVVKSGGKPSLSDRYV
Assay: flow cytometry, cyno CD8+ T cells, 2 uM FN3
Decide using Cyno T-cell Binding 2 uM (MFI): a value greater than or equal to 30000 MFI is Yes, a smaller one is No.

Example results:
>  <Binder>
P282FR9P1361_F11 (designed binder, FN3 domain) LPAPKNLVVSRVTEDSARLSWTAPDAAFDSFGIWYREYGGSGEAIVLTVPGSERSYDLTGLKPGTEYDVAIWGVKGGVRSYPLSAIFTT

>  <Assigned Category>
No

$$$$
>  <Binder>
P282BR9P1357_G9 (designed binder, FN3 domain) LPAPKNLVVSRVTEDSARLSWPIASQIHSPFDSFLIQYQESEKVGEAIVLTVPGSERSYDLTGLKPGTEYTVSIYGVDVKYDIDSRPISSNPLSAIFTT

>  <Assigned Category>
Yes

$$$$
>  <Binder>
P282ER9P1360_H3 (designed binder, FN3 domain) LPAPKNLVVSRVTEDSARLSWTAPDAAFDSFSIAYVEAELVGEAIQLVVPGSERSYDLTGLKPGTEYWVVILGVKGGNPSNPLGASFTT

>  <Assigned Category>
Yes

$$$$

Kindly determine if Cyno T-cell Binding 2 uM (MFI) recorded for P282FR9P1361_F3 (designed binder, FN3 domain) LPAPKNLVVSRVTEDSARLSWTAPDAAFDSFDIWYAEYGYPGEAIVLTVPGSERSYDLTGLKPGTEYDVAISGAKGGPRSYPLSAIFTT is above or exactly 30000 MFI. No

Is it the case that P283AR9P1362_D2 (designed binder, FN3 domain) LPAPKNLVVSRVTEDSARLSWQRPKSGFFDSFLIQYQESEKVGEAIVLTVPGSERSYDLTGLKPGTEYTVSIYGVDVKYDIDSRPISSNPLSAIFTT has Cyno T-cell Binding 2 uM (MFI) reaching or exceeding 30000 MFI? No

Is it the case that P283AR9P1362_F2 (designed binder, FN3 domain) LPAPKNLVVSRVTEDSARLSWRKKDHPFDSFLIQYQESEKVGEAIVLTVPGSERSYDLTGLKPGTEYTVSIYGVDVKYDIDSRPISSNPLSAIFTT has Cyno T-cell Binding 2 uM (MFI) reaching or exceeding 30000 MFI? No
